assay: chemical genetic growth profiling, strain panel (AID 1159580);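 further: tested at 20 µM; growth read once vehicle control cultures reached saturation at 30 °C; 1 = growth at the plate median or of vehicle wells; lower values mean less growth of the strain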; settings: S. cerevisiae deletion strains, growth OD, locus YER155C, strain BEM2 (second series), active compounds read low
The whole screen tested about 5,500 compounds, of which about 2,000 (36%) were called active. About 18% were inconclusive and are not listed. Some of the results follow.
The molecules listed here are annotated with their normalized growth.
// no unit, no text: just the number

Ask | Could you tell me which normalized growth is on file for COC(=O)[C@@H]1OC(=O)C2OC23[C@@]1(C)CCC1[C@]2(C)C(C[C@H](O)[C@]13C)C(C)(C)[C@H](OC(C)=O)C[C@@H]2OC(C)=O (some centres not stated) ?
Reply | 1.02

Ask | Could you tell me which normalized growth is on file for CO/N=C1/CN(c2nc3c(cc2F)c(=O)c(C(=O)O)cn3C2CC2)CC1CN (configuration not stated) ?
Reply | 0.977

Ask | Could you tell me which normalized growth is on file for O=C1CCC(N2C(=O)c3ccccc3C2=O)C(=O)N1 (configuration not stated) ?
Reply | 0.998

Ask | Could you tell me which normalized growth is on file for `CN1CCC(OC(c2ccccc2)c2ccccc2)CC1` ?
Reply | 0.977

Ask | Could you tell me which normalized growth is on file for `C#CCN(C)Cc1ccccc1` ?
Reply | 1.01

Ask | Could you tell me which normalized growth is on file for Clc1ccc(C(OCCN2CCCCC2)c2ccccc2)cc1 (configuration not stated) ?
Reply | 1.01

Ask | Could you tell me which normalized growth is on file for CN(C)CCOC(c1ccc(Cl)cc1)c1ccccn1 (configuration not stated) ?
Reply | 1.02

====

The compounds listed here are annotated with their normalized growth.
assay: chemical genetic growth profiling, strain panel (AID 1159580); settings: S. cerevisiae deletion strains, growth OD, locus YDR001C, strain nth1, active compounds read low
Screen size: about 5,500 compounds; about 2,000 (36%) were called active. Not shown: some 18% with an inconclusive outcome. The list shows a part of the results.

Use these answered entries as a reference point.
{"compound": "CN1CCC(OC(c2ccccc2)c2ccccc2)CC1", "normalized growth": "0.984 (inactive)"}
{"compound": "CC(C)NCC(O)COc1cccc2[nH]ccc12 (stereo unspecified)", "normalized growth": "0.974 (inactive)"}
{"compound": "C=C1CCC2[C@](C)(CO)[C@H](O)CC[C@@]2(C)[C@@H]1C/C=C1/C(=O)OC[C@H]1O (stereo partly specified)", "normalized growth": "0.988 (inactive)"}
{"compound": "CN(C)CCN(Cc1cccs1)c1ccccn1", "normalized growth": "1.01 (inactive)"}
{"compound": "C=C[C@@](C)(O)CCC1C(=C)C[C@H](O)C2C(C)(C)CCCC12C (stereo partly specified)", "normalized growth": "0.989 (inactive)"}

Now examine the next entry.
Ask | Could you tell me which normalized growth is on file for `O=C(NC(=O)c1ccccc1Cl)Nc1ccc(OC(F)(F)F)cc1` ?
Reply | 1.02 (inactive)

====

experiment: chemical genetic growth profiling, strain panel (AID 1159580); conditions: S. cerevisiae deletion strains, growth OD, locus YNL271C, strain bni1, active compounds read low
Among all 5,500 compounds or so, about 2,000 (36%) were called active. Inconclusive results (about 18%) are left out. The list shows a part of the results.
quantity name: normalized growth
// no unit, no text: just the number

Use these answered entries as a reference point.
{"molecule": "COc1ccc2c(c1)OC1(O)COc3cc(OC)c(OC)cc3C1=C2 (configuration not stated)", "quantity name": "normalized growth", "result": 0.98}
{"molecule": "C=CCc1ccc(O)c(OC)c1", "quantity name": "normalized growth", "result": 0.931}
{"molecule": "C=CCc1ccc(OC(=O)c2ccccc2)c(OC)c1", "quantity name": "normalized growth", "result": 0.994}
{"molecule": "C[C@]12CCC(=O)C=C1C=CC1C2CC[C@@]2(C)C1CC[C@@]21CCC(=O)O1 (some centres not stated)", "quantity name": "normalized growth", "result": 0.968}

Now examine the next entry.
Ask | Could you tell me which normalized growth is on file for `COc1ccc(-c2coc3cc(O)ccc3c2=O)c(OC)c1` ?
Reply | 0.992

====

experiment: chemical genetic growth profiling, strain panel (AID 1159580);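 further: tested at 20 µM; growth read once vehicle control cultures reached saturation at 30 °C; 1 = growth at the plate median or of vehicle wells; lower values mean less growth of the strain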; conditions: S. cerevisiae deletion strains, growth OD, locus YBR229C, strain ROT2, active compounds read low
About 2,000 (36%) of roughly 5,500 compounds were called active. Roughly 18% stayed inconclusive and do not appear here. Some of the results follow.
quantity name: normalized growth
// no unit, no text: just the number

Use these answered entries as a reference point.
{"compound": "O=C1c2ccccc2C(=O)C1(c1ccccc1)[N+](=O)[O-]", "quantity name": "normalized growth", "result": 0.78}
{"compound": "O=C1c2ccc(O)cc2O[C@H](c2cc(O)c(O)c(O)c2)[C@H]1O", "quantity name": "normalized growth", "result": 0.992}
{"compound": "C[C@@H]1O[C@@H](O[C@H]2[C@H](Oc3cc(O)c4c(=O)cc(-c5ccc(O)cc5)oc4c3)O[C@H](CO)[C@@H](O)[C@@H]2O)[C@H](O)[C@H](O)[C@H]1O", "quantity name": "normalized growth", "result": 1}
{"compound": "COc1cc(OC)c2c(c1)O[C@H](c1cc(OC)c(OC)c(OC)c1)[C@H](OC(=O)c1cc(OC)c(OC)c(OC)c1)C2", "quantity name": "normalized growth", "result": 1.02}

Ask | Could you tell me which normalized growth is on file for `Oc1cc(O)c2c(c1)O[C@H](c1cc(O)c(O)c(O)c1)[C@H](O)C2` ?
Reply | 0.996

Ask | Could you tell me which normalized growth is on file for `NC(=O)c1ccc[n+]([C@@H]2O[C@H](COP(=O)([O-])OP(=O)(O)OC[C@H]3O[C@@H](n4cnc5c(N)ncnc54)[C@H](OP(=O)(O)O)[C@@H]3O)[C@@H](O)[C@H]2O)c1` ?
Reply | 1.03

Ask | Could you tell me which normalized growth is on file for `O=C(Oc1cc(OC(=O)c2ccccc2)c2c(c1)O[C@H](c1ccc(OC(=O)c3ccccc3)c(OC(=O)c3ccccc3)c1)[C@@H](OC(=O)c1ccccc1)C2)c1ccccc1` ?
Reply | 1.04

Ask | Could you tell me which normalized growth is on file for CN1C2CCC1CC(OC(c1ccccc1)c1ccccc1)C2 (stereo unspecified) ?
Reply | 0.989

Ask | Could you tell me which normalized growth is on file for `O=C(O[C@@H]1Cc2c(O)cc(O)cc2O[C@@H]1c1cc(O)c(O)c(O)c1)c1cc(O)c(O)c(O)c1` ?
Reply | 0.889

Ask | Could you tell me which normalized growth is on file for `COc1ccc([C@H]2Oc3c(I)c(OC)cc(OC)c3C[C@@H]2O)cc1OC` ?
Reply | 1

Ask | Could you tell me which normalized growth is on file for `O=C(Oc1cc(O)cc2c1C[C@@H](OC(=O)c1cc(O)c(O)c(O)c1)[C@@H](c1cc(O)c(O)c(O)c1)O2)c1cc(O)c(O)c(O)c1` ?
Reply | 0.482

Ask | Could you tell me which normalized growth is on file for CC[C@@H](C(=O)C(C)[C@@H](O)[C@H](C)CCc1ccc(C)c(O)c1C(=O)O)C1OC(CC)(C2CC[C@](O)(CC)[C@H](C)O2)C[C@@H]1C (stereo partly specified) ?
Reply | 1.04

Ask | Could you tell me which normalized growth is on file for `C#CCN(C)Cc1ccccc1` ?
Reply | 1

Ask | Could you tell me which normalized growth is on file for `Cc1nc(N)ncc1Sc1ccccc1` ?
Reply | 0.989

Ask | Could you tell me which normalized growth is on file for Oc1cc(O)c2c(c1)OC(c1cc(O)c(O)c(O)c1)C(O)C2c1c(O)cc(O)c2c1OC(c1cc(O)c(O)c(O)c1)C(O)C2c1c(O)cc(O)c2c1OC(c1cc(O)c(O)c(O)c1)C(O)C2 (stereo unspecified) ?
Reply | 0.992

Ask | Could you tell me which normalized growth is on file for `Oc1cc(O)c2c(c1)O[C@H](c1ccc(O)c(O)c1)[C@H](O)C2` ?
Reply | 1

====

assay: chemical genetic growth profiling, strain panel (AID 1159580);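 further: tested at 20 µM; growth read once vehicle control cultures reached saturation at 30 °C; 1 = growth at the plate median or of vehicle wells; lower values mean less growth of the strain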; conditions: S. cerevisiae deletion strains, growth OD, locus YDL035C, strain GPR1, active compounds read low
Out of some 5,500 compounds screened, about 2,000 (36%) were called active. About 18% were inconclusive and are not listed. The list shows a part of the results.
quantity name: normalized growth
// no unit, no text: just the number

{"compound": "COc1ccc(-c2coc3cc(O)ccc3c2=O)c(OC)c1", "normalized growth": 1}

Now examine the next entry.
Ask | Could you tell me which normalized growth is on file for `COc1ccc(C(c2ccc(OC)cc2)C(Cl)(Cl)Cl)cc1` ?
Reply | 0.999

====

experiment: chemical genetic growth profiling, strain panel (AID 1159580);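 further: tested at 20 µM; growth read once vehicle control cultures reached saturation at 30 °C; 1 = growth at the plate median or of vehicle wells; lower values mean less growth of the strain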; details: S. cerevisiae deletion strains, growth OD, locus YDR195W, strain ref2
Hit rate of the full screen: of about 5,500 compounds, about 2,000 (36%) were called active. About 18% were inconclusive and are not listed. Some of the results follow.
quantity name: normalized growth
// no unit, no text: just the number

Use these answered entries as a reference point.
{"molecule": "OCC(O)CN1CCN(c2ccccc2)CC1 (stereo not given)", "normalized growth": 0.967}
{"molecule": "CCN(CC)Cc1ccc(Nc2ccnc3cc(Cl)ccc23)cc1O", "normalized growth": 0.971}
{"molecule": "C=C1CCC2[C@](C)(CO)[C@H](O)CC[C@@]2(C)[C@@H]1C/C=C1/C(=O)OC[C@H]1O (stereo not given in full)", "normalized growth": 0.949}

Ask | Could you tell me which normalized growth is on file for `CCCCCCCCCCCCCc1ccco1` ?
Reply | 0.973

Ask | Could you tell me which normalized growth is on file for COc1ccc(OC)c(C(O)CNC(=O)CN)c1 (stereo not given) ?
Reply | 0.977
